system: Plasmodium falciparum; test: NOVARTIS: Inhibition of Plasmodium falciparum 3D7 (drug-susceptible) proliferation in erythrocyte-based infection assay; type: functional, organism-based; conditions: Plasmodium falciparum, 3D7
metric: EC50 (µM)
Response body: numeric value in µM, unit text excluded.

Answered examples (2):
COc1ccc(C2CC(=O)C3=C(C2)NC(C)=C(C(=O)OC2CCCCC2)C3c2ccc(F)cc2)cc1OC (configuration not stated) :: 0.138
O=[N+]([O-])c1cccc(C=NNc2nc(NN=Cc3cccc([N+](=O)[O-])c3)nc(Nc3cccc4ccccc34)n2)c1 :: 0.509

Query string: Please report the recorded EC50 for Cc1sc2nc3c4ccccc4c(NCCCN(C)C)nn3c(=O)c2c1C .
Result string: 6.6

Query string: So what's the measured EC50 for this one? CC[n+]1c(C=CC=C2N(C)c3ccccc3C2(C)C)sc2ccccc21
Result string: 0.629

Query string: Looking for the measured EC50 of Cc1oc2c(c1C(=O)NCCCn1ccnc1)C(=O)c1ccccc1C2=O , can you help?
Result string: 0.0904

Query string: Look up EC50: COc1ccc2c(c1)CC1c3c(cc4c(c3-2)OCO4)CCN1C (configuration not stated)
Result string: 0.0385

Query string: Fill in the blank: the reported EC50 of O=S(=O)(NCCCCNc1ccnc2cc(Cl)ccc12)c1cc(Cl)ccc1Cl is ____.
Result string: 0.391

Query string: Need EC50 of COc1ccc2nc(C)cc(Nc3cccc(Cl)c3)c2c1 , thanks.
Result string: 0.371

Query string: Any idea what EC50 was measured for O=C(NN=Cc1ccc(Br)cc1)c1ccco1 ?
Result string: 11.4

* * *

Reported CC50 values for a set of compounds
test: NOVARTIS: Cytotoxicity against human hepatocellular carcinoma cell line (Huh7); type: toxicity, cell-based, Huh-7; details: Huh7 cells (hepatocellular carcinoma cell line)
The reply should be a number in µM, with the unit left off.

Example compounds with recorded CC50:
Cc1cc(NCCc2ccccc2)nc2cc(O)ccc12 :: 29.5
Cc1cccc(NS(=O)(=O)c2ccc3[nH]c(=O)ccc3c2)c1C :: 81.8

Query string: # CC50 lookup, item COc1ccc(C2CC(=O)C3=C(C2)NC(C)=C(C(=O)OC2CCCC2)C3c2cccc(Cl)c2)cc1OC (stereo not given)
Result string: 16.9

* * *

experiment: NOVARTIS: Cytotoxicity against human hepatocellular carcinoma cell line (Huh7); type: toxicity, cell-based, Huh-7; conditions: Huh7 cells (hepatocellular carcinoma cell line)
metric: CC50

The cases that follow already have their CC50 on record.
CCCOC(=O)C1=C(C)NC2=C(C(=O)CC(c3ccccc3)C2)C1c1ccc(Cl)cc1Cl (centres undefined) :: > 100 µM
c1cn2c(-c3ccc(N4CCOCC4)cc3)cnc2c(NCc2ccc3c(c2)OCO3)n1 :: > 10 µM
O=C(Nc1ccc(Cl)c(Cl)c1)Nc1ccc(Cl)c(Cl)c1 :: 20.2 µM
COc1cc(NC(C)CCCN(Cc2ccccc2OC)C(=O)c2ccc(Cl)c([N+](=O)[O-])c2)c2ncccc2c1 (centres undefined) :: > 3.91 µM
Nc1nc(N)c2cc(S(=O)(=O)c3ccc4ccccc4c3)ccc2n1 :: 49.5 µM

Query string: CC50 for COCCN1C(=O)c2ccccc2C(C(=O)Nc2cccc(C(F)(F)F)c2)C1c1cccs1 (centres undefined) ?
Result string: > 100 µM

Query string: Find the recorded CC50 belonging to CCOc1ccc(Nc2ccnc3cc(Cl)ccc23)cc1 and report it.
Result string: > 100 µM
